test system: Ab AB5075; assay type: cell-based, Acinetobacter baumannii; conditions: pH 7.4
*1 amine or outer side, *2 acyl side, *3 side chain or, on linkers, in order; H or OH if unused. Where a SMILES comes first, the peptide text is derived from it. Bridges are numbered along the chain shown (N, C = ends). [ ]: non-standard residue; d: D form. The star is where a group is joined. X2 = O=C([C@@H](N[*:1])[C@H](O)CCC(F)(F)F)[*:2]; Propargyl(OCH2CH2)4CO = C#CCOCCOCCOCCOCCC(=O)*; X1 = CCCCCC[C@@H](O)[C@H](N[*:1])C(=O)[*:2]; X3 = CCCCC[C@@H](O)[C@H](N[*:1])C(=O)[*:2]; azaDab = NCCN(N[*:1])C(=O)[*:2]; dCha = N[C@H](CC1CCCCC1)C(=O)O; Aoc(2) = CCCCCC[C@H](N)C(=O)O; hLeu = CC(C)CC[C@H](N)C(=O)O; Dab = NCC[C@H](N)C(=O)O; azaGly = NNC(=O)O
Listing of recorded MIC in RPMI AB 5075 by entry.
Give the number; µg/mL is assumed, so skip it.

Answered cases to consult:
{"columns": ["MOLECULE", "EXPERIMENTAL TARGET", "TEST VALUE"],
 "data": [
  ["C#CCOCCOCCOCCOCCC(=O)N[C@@H](CCN)C(=O)N[C@H](C(=O)NNC(=O)N[C@H]1CCNC(=O)[C@H]([C@@H](C)O)NC(=O)[C@H](CCN)NC(=O)[C@H](CCN)NC(=O)[C@H](CC(C)C)NC(=O)[C@@H](CC2CCCCC2)NC(=O)[C@H](CCN)NC1=O)[C@H](O)CCCCCC [Int-115] ({Propargyl(OCH2CH2)4CO}-[Dab][X1][azaGly][Dab][Dab][dCha]L[Dab][Dab]T; lactam 4-C)", "Ab AB5075", 1.11],
  ["C#CCOCCOCCOCCOCCC(=O)N[C@@H](CCCCCC)C(=O)N[C@@H](CCN)C(=O)N[C@H](C(=O)N[C@@H](CCN)C(=O)N[C@H]1CCNC(=O)[C@H]([C@@H](C)O)NC(=O)[C@H](CCN)NC(=O)[C@H](CCN)NC(=O)[C@H](CC(C)C)NC(=O)[C@@H](Cc2ccccc2)NC(=O)[C@H](CCN)NC1=O)[C@H](O)CCC(F)(F)F [Int-118] ({Propargyl(OCH2CH2)4CO}-[Aoc(2)][Dab][X2][Dab][Dab][Dab][dF]L[Dab][Dab]T; lactam 5-C)", "Ab AB5075", 0.95],
  ["C#CCOCCOCCOCCOCCC(=O)Nc1nc(C)c(C(=O)N[C@@H](CCCC)C(=O)C[C@@H](CCN)C(=O)N[C@H](C(=O)NC(CCCN)C(=O)N[C@H]2CCNC(=O)[C@H]([C@@H](C)O)NC(=O)[C@H](CCN)NC(=O)[C@H](CCN)NC(=O)[C@H](CC(C)C)CC(=O)[C@@H](Cc3ccccc3)NC(=O)[C@H](CCN)CC2=O)[C@@H](C)O)s1 (some centres unmarked)", "Ab AB5075", 1.88],
  ["C#CCOCCOCCOCCOCCC(=O)N[C@@H](CCC(C)C)C(=O)N[C@@H](CCN)C(=O)N[C@H](C(=O)NNC(=O)N[C@H]1CCNC(=O)[C@H]([C@@H](C)O)NC(=O)[C@H](CCN)NC(=O)[C@H](CCN)NC(=O)[C@H](CC(C)C)NC(=O)[C@@H](Cc2ccccc2)NC(=O)[C@H](CCN)NC1=O)[C@H](O)CCCCC [Int-116] ({Propargyl(OCH2CH2)4CO}-[hLeu][Dab][X3][azaGly][Dab][Dab][dF]L[Dab][Dab]T; lactam 5-C)", "Ab AB5075", 1.05]
]}

Here is another molecule to look at.
Just so you know, measured MIC in RPMI AB 5075 for C#CCOCCOCCOCCOCCC(=O)N[C@@H](CCC(C)C)C(=O)N[C@@H](CCN)C(=O)N[C@H](C(=O)NN(CCN)C(=O)N[C@H]1CCNC(=O)[C@H]([C@@H](C)O)NC(=O)[C@H](CCN)NC(=O)[C@H](CCN)NC(=O)[C@H](CC(C)C)NC(=O)[C@@H](Cc2ccccc2)NC(=O)[C@H](CCN)NC1=O)[C@@H](C)O [Int-127] ({Propargyl(OCH2CH2)4CO}-[hLeu][Dab]T[azaDab][Dab][Dab][dF]L[Dab][Dab]T; lactam 5-C) came out at 1.00
